Assay target: Yap3 (UniProt P38749)
Sequence: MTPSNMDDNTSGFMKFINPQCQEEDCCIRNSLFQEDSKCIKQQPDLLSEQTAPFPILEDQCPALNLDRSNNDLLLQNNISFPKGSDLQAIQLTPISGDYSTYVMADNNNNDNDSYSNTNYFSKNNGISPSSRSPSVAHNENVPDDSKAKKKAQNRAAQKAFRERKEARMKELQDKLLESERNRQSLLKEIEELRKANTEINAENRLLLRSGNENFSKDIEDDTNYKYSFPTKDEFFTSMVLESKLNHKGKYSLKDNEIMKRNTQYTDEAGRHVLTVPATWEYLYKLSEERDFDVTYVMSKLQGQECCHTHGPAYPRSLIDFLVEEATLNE
Test summary: PBM E-score (8-mer binding enrichment) (E-score (-0.5 to 0.5)); higher = stronger / more preferred TF binding
Measurement setup: protein concentration: 100 nM; construct: GST-full length
Over roughly 33,000 sequences, “E-score (-0.5 to 0.5)” has its median near -0.0034; the highest 2% begin near 0.25. The entries come from a sample that favours the highest values as a whole.
Parameter threshold = 0.08. Response is MET when PBM E-score meets or exceeds it, else NOT MET.

Observe how each entry below is paired with its result.
* GCAAAACC | NOT MET
* GTCGACCA | NOT MET
* ATTACGAG | MET
* CTGTGTTA | MET
* ATAACCTG | NOT MET
* ACTCTAGA | NOT MET

Next up:
Data request: Threshold query (PBM E-score >= 0.08) on `CGGGCCTA`
Data returned: NOT MET

----------
Assay target: Yap3 (UniProt P38749)
Sequence: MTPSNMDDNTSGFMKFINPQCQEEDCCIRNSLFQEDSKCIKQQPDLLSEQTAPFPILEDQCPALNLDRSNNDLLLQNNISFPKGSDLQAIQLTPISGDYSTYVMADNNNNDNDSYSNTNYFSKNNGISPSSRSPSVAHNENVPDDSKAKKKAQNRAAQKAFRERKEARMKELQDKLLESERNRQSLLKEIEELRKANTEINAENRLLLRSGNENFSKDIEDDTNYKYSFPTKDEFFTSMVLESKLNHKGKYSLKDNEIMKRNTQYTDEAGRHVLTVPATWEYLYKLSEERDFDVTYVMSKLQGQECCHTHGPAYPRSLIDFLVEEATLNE
Test summary: PBM E-score (8-mer binding enrichment) (E-score (-0.5 to 0.5)); higher = stronger / more preferred TF binding
Measurement setup: protein concentration: 100 nM; construct: GST-full length
Whole data set: some 33,000 sequences, median “E-score (-0.5 to 0.5)” near -0.0034, cut for the highest 2% near 0.25. The full list was thinned out, with the highest values kept by preference.
Parameter threshold = 0.2. Response is condition met when PBM E-score meets or exceeds it, else condition not met.

Observe how each entry below is paired with its result.
• CACCCATG = condition not met
• AGTATTAT = condition not met
• CACATGTA = condition not met
• TAGGGCAA = condition not met
• CCAGCCCG = condition not met

Data request: Threshold query (PBM E-score >= 0.2) on `GTTCATTA`
Data returned: condition met

Data request: Threshold query (PBM E-score >= 0.2) on `GTACGTTA`
Data returned: condition met

----------
Assay target: Yap3 (UniProt P38749)
Sequence: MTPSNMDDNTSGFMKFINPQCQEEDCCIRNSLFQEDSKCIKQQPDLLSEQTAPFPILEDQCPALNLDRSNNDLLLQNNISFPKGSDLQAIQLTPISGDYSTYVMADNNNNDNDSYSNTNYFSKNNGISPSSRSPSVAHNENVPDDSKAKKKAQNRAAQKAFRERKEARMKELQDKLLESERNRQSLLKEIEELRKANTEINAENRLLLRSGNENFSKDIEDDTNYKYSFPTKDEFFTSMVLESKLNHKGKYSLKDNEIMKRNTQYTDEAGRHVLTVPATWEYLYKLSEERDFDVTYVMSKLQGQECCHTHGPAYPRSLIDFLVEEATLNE
Test summary: PBM E-score (8-mer binding enrichment) (E-score (-0.5 to 0.5)); higher = stronger / more preferred TF binding
Measurement setup: protein concentration: 100 nM; construct: GST-full length
In all, about 33,000 sequences were measured (“E-score (-0.5 to 0.5)”: median about -0.0034, highest 2% from about 0.25 on). The sample holds the highest values, similar sequences and a random draw of the others, so the mix is not that of the screen.
Parameter measured: PBM E-score
Just the number.

* GTAGTCAA | -0.0796
* ATAGTAAA | 0.238
* TAAAAAAA | 0.0893
* ACGTGAAA | 0.211
* CTAGTCAA | -0.0259
* TAAAAATA | 0.26
* CAAATAAA | 0.197
* TAAAGATA | 0.254

Data request: Given the entry `CAAATATA` , report its measured PBM E-score.
Data returned: 0.0799

Data request: Given the entry `AAAATAAA` , report its measured PBM E-score.
Data returned: 0.204

Data request: Given the entry `CACCCGAA` , report its measured PBM E-score.
Data returned: 0.0804
